System: CP260
protocol-text: qHTS profiling for inhibitors of Plasmodium falciparum proliferation (AID 504749); note: nearly all actives have a fitted effect of over 60% in size
condition-label: P. falciparum in erythrocytes, SYBR Green DNA, 72 h; series mostly up to 28.7 µM
Records with an inconclusive call do not appear. Active and inactive are the calls of the source. Calls come from the whole dose curve; as a rule, active = well fitted inhibition curve with a large enough effect; inconclusive = small, poorly fitted or top-dose-only effect; inactive = flat fitted curve, though single readings scatter.
Hello, when you answer, please use one of the following outcomes: class 1 (active), class 0 (inactive)

What did the test return for CC(=O)O[C@]1(C(C)=O)CCC2C3CCC4=CC(=O)CCC4(C)C3(F)C(O)CC21C (stereo not given in full) ?
class 0

And then `C[S+](C)CC[C@H](N)C(=O)O` , what is it?
class 0

And then CO[C@H]1OC2O[C@@]3(C)CC[C@H]4[C@H](C)CC[C@@H]([C@H]1C)[C@@]24OO3 (stereo not given in full) , what is it?
class 1

And then COc1cccc2c1C(=O)c1c(O)c3c(c(O)c1C2=O)C[C@@](O)(C(=O)CO)C[C@@H]3OC1CC(N)C(O)C(C)O1 (stereo not given in full) , what is it?
class 1

And then `CCCC[C@H](O)c1ccccc1` , what is it?
class 0

And then `C[C@@H]1CCN(C(=O)[C@H](CCCNC(=N)N)NS(=O)(=O)c2cccc3c2NC[C@H](C)C3)[C@@H](C(=O)O)C1` , what is it?
class 0

And then NC(=O)c1ncn(C2OC(CO)C(O)C2O)c1N (stereo not given) , what is it?
class 0

And then O=C(O)C(O)c1ccccc1 (stereo not given) , what is it?
class 0

And then O=c1ccn(C2OC(COP(=O)(O)OC3C(CO)OC(n4ccc(=O)[nH]c4=O)C3O)C(O)C2O)c(=O)[nH]1 (stereo not given) , what is it?
class 0

And then `C[C@]12CCC(=O)C=C1[C@@H]1C[C@H]1[C@H]1[C@@H]3[C@@H]4C[C@H]4[C@@]4(CCC(=O)O4)[C@@]3(C)CC[C@@H]12` , what is it?
class 0

And then CC(CCC(=O)O)C1CCC2C3C(=O)C[C@@H]4CC(=O)CC[C@@]4(C)C3CC(=O)[C@]12C (stereo not given in full) , what is it?
class 0

And then Cc1onc(-c2c(F)cccc2Cl)c1C(=O)NC1C(=O)N2C1SC(C)(C)C2C(=O)O (stereo not given) , what is it?
class 0

And then `C/C(=C(/CCOC(=O)C(C)C)SS/C(CCOC(=O)C(C)C)=C(\C)N(C=O)Cc1cnc(C)nc1N)N(C=O)Cc1cnc(C)nc1N` , what is it?
class 0

And then CC(=O)NC1[C@H]([C@H](O)[C@H](O)CO)OC(C(=O)O)=C[C@H]1N=C(N)N (stereo not given in full) , what is it?
class 0

And then `CN(C)CC/C=C1\c2ccccc2COc2ccc(CC(=O)O)cc21` , what is it?
class 0

----------
Test system: CP238
protocol-text: qHTS profiling for inhibitors of Plasmodium falciparum proliferation (AID 504749); note: nearly all actives have a fitted effect of over 60% in size
condition-label: P. falciparum in erythrocytes, SYBR Green DNA, 72 h; series mostly up to 28.7 µM
Method: NIH National Institute of Allergy and Infectious Diseases [NIAID] NIH Chemical Genomics Center [NCGC] […] Because mature erythrocytes lack DNA, only Plasmodium-derived DNA is detected. NCGC Assay Protocol Summary: The SYBR Green viability assay was adapted from a method described previously (Plouffe et al., 2008). […] The following morning, fluorescence intensity at 485(14) nm excitation and 535(25) nm emission wavelengths was measured on an EnVision (Perkin Elmer) plate reader. […]
Records with an inconclusive call do not appear. Activity calls are given as the source filed them. Calls come from the whole dose curve; as a rule, active = well fitted inhibition curve with a large enough effect; inconclusive = small, poorly fitted or top-dose-only effect; inactive = flat fitted curve, though single readings scatter.
metric: outcome

CNC1C(O)C(OC2C(NC(=O)C(O)CN)CC(N)C(OC3OC(CN)C(O)C(O)C3O)C2O)OCC1(C)O (stereo not drawn); inactive
CN1[C@H]2CC(OC(=O)[C@H](CO)c3ccccc3)C[C@H]1[C@H]1O[C@H]12 (stereo partly drawn); inactive
NC(C(=O)O)c1ccc(O)cc1 (stereo not drawn); inactive

----------
Would you kindly list activity change, negative = inhibition for each of these compounds?
protocol-text: AP1 Signaling Pathway (AID 357);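 note: ME-180 reporter cells stimulated with EGF at its EC50 level; % is set by controls: 0 for no effect and ±100 for the full control effect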
condition-label: ME-180 AP-1-bla reporter, EGF-induced, beta-lactamase ratio, 5 h; at 17.2 µM (top of the series) unless noted
Protocol: NCGC Assay Overview: Activator protein-1 (AP-1), a transcription factor, plays an important role in tumor genesis by regulating genes involved in cell proliferation, differentiation, apoptosis, and angiogenesis. AP-1 activity is induced by a complex network of signaling pathways that involves extracellular signals, such as growth factors. […] Library compounds were measured for their ability to modulate positively or negatively the action of EC50 EGF on reporter gene activity. […]
Inconclusive results are not listed.
Write the number in % without appending the unit.

If you can, please state the reported activity change, negative = inhibition value of `Cc1ccc(CNc2oc(COc3ccccc3Cl)nc2C#N)cc1` .
39.1

And then `Cc1cc(C)c(C#N)c(OCC(=O)c2ccccc2)n1` , what is it?
-15.4

And then `O=C(NCC(F)(F)F)N1CCOCC1` , what is it?
6.11

And then Cc1nnc2n(-c3ccccc3)c(=O)c3c4c(sc3n12)COC(C(C)C)C4 (stereo not given) , what is it?
-3.43

And then `CCCOc1cccc(-c2nnc(N)s2)c1` , what is it?
-15.9

----------
Tested on: CP185
protocol-text: qHTS profiling for inhibitors of Plasmodium falciparum proliferation (AID 504749); note: nearly all actives have a fitted effect of over 60% in size
condition-label: P. falciparum in erythrocytes, SYBR Green DNA, 72 h; series mostly up to 28.7 µM
Results filed as inconclusive are left out. Active and inactive are the calls of the source. Calls follow the shape of the dose curve; as a rule, active = well fitted inhibition curve with a large enough effect; inconclusive = small, poorly fitted or top-dose-only effect; inactive = flat fitted curve, though single readings scatter.
Hello, when you answer, please use one of the following outcomes: T for active, F for inactive

What did the test return for `Nc1nc(F)nc2c1ncn2[C@@H]1O[C@H](CO)[C@@H](O)[C@H]1O` ?
F

And then CO[C@H]1OC2O[C@@]3(C)CC[C@H]4[C@H](C)CC[C@@H]([C@H]1C)[C@@]24OO3 (stereo partly drawn) , what is it?
T

And then CN1[C@H]2CC(OC(=O)[C@H](CO)c3ccccc3)C[C@H]1[C@H]1O[C@H]12 (stereo partly drawn) , what is it?
F

And then `C[C@]12CCC(=O)C=C1[C@@H]1C[C@H]1[C@H]1[C@@H]3[C@@H]4C[C@H]4[C@@]4(CCC(=O)O4)[C@@]3(C)CC[C@@H]12` , what is it?
F

And then `O=C1C(I)=CC(=C(c2cc(I)c(O)c(I)c2)c2ccccc2C(=O)O)C=C1I` , what is it?
F

And then `C/C=C1/NN(CCCN2CCN(c3cccc(Cl)c3)CC2)C(=O)N1CCOc1ccccc1` , what is it?
F

And then C[N+]12CCCC[C@@H]1CCC(=C(c1cccs1)c1cccs1)C2 (stereo partly drawn) , what is it?
T

And then C=CC1CN2CCC1CC2[C@@H](O)c1ccnc2ccc(OC)cc12 (stereo partly drawn) , what is it?
T

----------
protocol-text: Stat Signaling Pathway (AID 446);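 note: ME-180 cervical cancer cells given 40 pM IL-6 alongside compound; SIE-controlled beta-lactamase reporter measured as 460/530 nm FRET emission ratio; % is set by controls: 0 for no effect and ±100 for the full control effect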
condition-label: ME-180 (cervical carcinoma) SIE beta-lactamase reporter, IL-6 stimulated, 5 h; at 17.2 µM (top of the series) unless noted
Inconclusive results are not listed. Calls of active or inactive are those of the source. The call rests on the fitted dose curve; in most records, active means well fitted curve in either direction with a large enough effect (not every such curve was filed as active); inconclusive means small, poorly fitted or top-dose-only effect, or another doubt; inactive means flat fitted curve, though single readings scatter.
metric: activity, negative = inhibition

If you can, please state the reported activity, negative = inhibition value of `CCN(CC)C(=O)CSc1nc2ccccc2c(=O)n1CC1CCCCC1` .
-17.5% (inactive)

And then `Cc1cc(C)n(Cc2cc(C)c(Cn3nc(C)cc3C)cc2C)n1` , what is it?
-5.55% (inactive)

And then `Cc1cc(C)n(C(=O)CNC(=O)c2cccs2)n1` , what is it?
4.05% (inactive)

And then `Cc1sccc1C1C(C#N)=C(N)SC(N)=C1C#N` , what is it?
-25.4% (inactive)

And then `CCN1CCC[C@@H]1CNC(=O)c1c(O)c(Cl)cc(Cl)c1OC` , what is it?
-20.4% [at 38 µM] (inactive)

And then `COCCCn1c(C)nc2c(c1=O)c1nc3ccccc3nc1n2CCc1ccccc1` , what is it?
-10% (inactive)

And then `Fc1ccccc1-c1nc(NCCCN2CCOCC2)c2ccccc2n1` , what is it?
-7.69% (inactive)

And then CCCOc1cccc(C2C(C(=O)c3ccc(C)o3)=C(O)C(=O)N2CCCN(C)C)c1 (stereo not given) , what is it?
5.19% (inactive)

And then `Cc1cc(=O)oc(C)c1C(=O)N[C@@H]1CCCCNC1=O` , what is it?
9.42% (inactive)

And then CCOC(=O)c1[nH]c2cc(OC)c(OC)cc2c1NC(=O)C(C)N1CCN(Cc2ccccc2)CC1 (stereo not given) , what is it?
-4.92% (inactive)

----------
protocol-text: qHTS assay for small molecule antagonists of retinoid X receptor alpha signaling (AID 588546);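 note: cells stimulated with 9-cis-retinoic acid as agonist; % is set by controls: 0 for no effect and ±100 for the full control effect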
condition-label: HEK293T RXRa-UAS-bla, beta-lactamase ratio, antagonist mode; measured here: W530 green channel, cytotoxicity proxy
Records with an inconclusive call do not appear.
metric: max response (%)
Write the number in % without appending the unit.

If you can, please state the reported max response value of `CC1(C)CCC(C)(C)c2cc(C(=O)Nc3ccc(C(=O)O)cc3)ccc21` .
2.34

And then `C=C(C)c1ccccc1` , what is it?
-0.247

And then CCC(C)Nc1ccc(NC(C)CC)cc1 (stereo not drawn) , what is it?
-40
